src = paper PMC2680390

Target: ERβ/SRC-3 coactivator interaction (Homo sapiens)
Sequence (Q92731 264-498 limits assumed): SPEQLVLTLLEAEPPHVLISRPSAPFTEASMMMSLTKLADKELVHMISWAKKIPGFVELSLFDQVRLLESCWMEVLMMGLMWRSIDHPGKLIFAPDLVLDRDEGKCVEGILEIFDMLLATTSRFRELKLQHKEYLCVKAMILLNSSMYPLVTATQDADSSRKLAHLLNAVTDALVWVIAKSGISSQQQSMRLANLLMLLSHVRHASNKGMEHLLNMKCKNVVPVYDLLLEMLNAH
Experiment: TR-FRET CBI assay, ERβ-LBD / SRC-3-NRD

molecule: CC(C)CNc1cc(Cl)nc(NCC(C)C)n1
Ki: > 1000 µM
--
molecule: CC(C)CNc1ccnc(NCC(C)C)n1 [Compound 27d, 2,4-diisobutylamino-pyrimidine]
Ki: > 1000 µM
--
molecule: CC(C)CNc1cc(/C=C/c2ccccc2)nc(NCC(C)C)n1
Ki: 242 µM
